Test: ATG_AP_1_CIS: Attagene CIS-FACTORIAL HepG2 Assay for human Activator Protein 1 (AP-1) (AID 2282931)
Conditions: HepG2 Attagene cis-factorial AP-1 reporter mRNA; actives raise or lower the signal
Calls of active or inactive are those of the source. The calls were made as follows: active = hit-call score of the fitted dose curve at least 0.9, where 1 is the maximum; inactive = score below 0.9.
Possible outcomes: 1 (active), -1 (inactive)

MOLECULE: CC(=O)Nc1ccc(O)cc1
CATEGORY: -1
//
MOLECULE: CCCCCCCC(OC)OC
CATEGORY: -1
//
MOLECULE: CCCCCCCCCC=CCC1CC(=O)OC1=O (configuration not stated)
CATEGORY: -1
//
MOLECULE: O=C1C=CC(=O)N1c1cccc(N2C(=O)C=CC2=O)c1
CATEGORY: -1
//
MOLECULE: Cc1cc(C(=C2C=CC(=Nc3ccc(S(=O)(=O)O)cc3)C=C2)c2ccc(Nc3ccc(S(=O)(=O)O)cc3)cc2)cc(S(=O)(=O)O)c1N
CATEGORY: -1
//
MOLECULE: O=C(C=C(O)C(F)(F)F)C(F)(F)F
CATEGORY: -1
//
MOLECULE: CCCCC(CC)C(=O)O (configuration not stated)
CATEGORY: -1
//
MOLECULE: O=C(NO)c1ccccc1
CATEGORY: 1
//
MOLECULE: Cn1sccc1=O
CATEGORY: -1
//
MOLECULE: COC(=O)C(F)(F)C(F)(F)C(F)(F)C(F)(F)C(F)(F)F
CATEGORY: -1
//
MOLECULE: CC(O)COc1ccccc1 (configuration not stated)
CATEGORY: -1
//
MOLECULE: CC(C)(C)c1ccc(CCC=O)cc1
CATEGORY: -1
//
MOLECULE: COC1=CC(=O)C[C@@H](C)[C@]12Oc1c(Cl)c(OC)cc(OC)c1C2=O
CATEGORY: -1
//
MOLECULE: CN(Cc1cnc2nc(N)nc(N)c2n1)c1ccc(C(=O)N[C@@H](CCC(=O)O)C(=O)O)cc1
CATEGORY: -1
//
MOLECULE: NC(C(F)(F)F)C(F)(F)F
CATEGORY: -1
//
MOLECULE: c1ccc(CNc2ncnc3c2ncn3C2CCCCO2)cc1 (configuration not stated)
CATEGORY: -1
//
MOLECULE: Clc1ccc2c(Cl)ccnc2c1
CATEGORY: -1
//
MOLECULE: O=C(O)C(=O)O
CATEGORY: -1
//
MOLECULE: Oc1c(Cl)ccc(Cl)c1Cl
CATEGORY: -1
//
MOLECULE: CCCCCCc1ccc(N)cc1
CATEGORY: -1
//
MOLECULE: CCCCCC(C)OC(=O)COc1ccc(Cl)c2cccnc12 (configuration not stated)
CATEGORY: -1
//
MOLECULE: Oc1cccc2c(O)cccc12
CATEGORY: -1
//
MOLECULE: CCCCC=O
CATEGORY: -1
//
MOLECULE: CCc1cccc(CC)c1NC(=O)C(=O)O
CATEGORY: -1
//
MOLECULE: CCCCCCCCCCCC[N+](C)(C)Cc1ccccc1
CATEGORY: -1
//
MOLECULE: Oc1cc2ccccc2cc1O
CATEGORY: 1
//
MOLECULE: CCOC(C)=O
CATEGORY: -1
//
MOLECULE: FC1(F)C=CC(F)(F)C1(F)F
CATEGORY: -1
//
MOLECULE: Cc1ccc(S(=O)(=O)O)cc1
CATEGORY: -1
//
MOLECULE: C[C@]12CC[C@@H]3c4ccc(O)cc4CC[C@H]3[C@@H]1CC[C@@H]2OC(=O)CCC1CCCC1
CATEGORY: -1
//
MOLECULE: CCCCCCCCCCCC[N+](C)(C)CCCCCCCCCCCC
CATEGORY: -1
//
MOLECULE: CCO[Si](C)(C)OCC
CATEGORY: -1
//
MOLECULE: Cc1cc(=O)oc2cc(O)ccc12
CATEGORY: -1
//
MOLECULE: O=C1Cc2ccccc2N1c1c(Cl)cccc1Cl
CATEGORY: -1
//
MOLECULE: CNNCc1ccc(C(=O)NC(C)C)cc1
CATEGORY: -1
//
MOLECULE: O=C1c2ccccc2C(=O)c2c(O)c(O)cc(O)c21
CATEGORY: 1
//
MOLECULE: Oc1ccc(Cc2ccccc2O)cc1
CATEGORY: -1

Measured values drawn from PubChem BioAssay (EPA / NIEHS) for this set.
